Measurement description: chemical genetic growth profiling, strain panel (AID 1159580);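 note: tested at 20 µM; growth read once vehicle control cultures reached saturation at 30 °C; 1 = growth at the plate median or of vehicle wells; lower values mean less growth of the strain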
Stated conditions: S. cerevisiae deletion strains, growth OD, locus YML120C, strain ndi1
The campaign covered roughly 5,500 compounds. About 2,000 (36%) were called active. About 18% were inconclusive and are not listed. Cut-off read from the data, not from the text of the source: active = normalized growth mostly below about 0.91 (no sharp cut-off); inconclusive = no clear call, values can overlap the other calls; inactive = mostly above about 0.92. This is one part of the list.
I would appreciate it if you answered using one of these outcomes: active, inactive

# example entries with known answers
Compound	Class label
CCC1(c2ccccc2)C(=O)NCNC1=O	inactive
COc1ccc(-c2coc3c(OC)c(OC)cc(O)c3c2=O)cc1	inactive
C[C@@H]1O[C@@H](O[C@H]2[C@@H](Oc3cc(O)c4c(c3)O[C@H](c3ccc(O)cc3)CC4=O)O[C@H](CO)[C@@H](O)[C@@H]2O)[C@H](O)[C@H](O)[C@H]1O	inactive

Please indicate how the test categorized O=C1C[C@@H](c2ccc(O)cc2)Oc2cc(O)cc(O)c21 .
inactive

Which outcome did this test record for the compound CCCCCCCCCCCCCCCCOP(=O)([O-])OCC[N+](C)(C)C ?
active

Recorded test outcome, item C1CCc2nnnn2CC1
inactive

Please indicate how the test categorized COc1cc2c(cc1OC)C(=O)C(CC1CCN(Cc3ccccc3)CC1)C2 (stereo not given) .
inactive

GET /call?item= CCOC(=O)c1ncn2c1CN(C)C(=O)c1cc(F)ccc1-2 returns the recorded outcome of this test.
inactive

Fill in: this test's call for COc1ccc(-c2coc3c(O)c(OC)ccc3c2=O)cc1 is ___
active

Status in this test for CCCCCCCC/C=C/CCCCCCCCOP(=O)([O-])OCC[N+](C)(C)C ?
active

----------
Overview of recorded normalized growth for various molecules
Measurement description: chemical genetic growth profiling, strain panel (AID 1159580);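 note: tested at 20 µM; growth read once vehicle control cultures reached saturation at 30 °C; 1 = growth at the plate median or of vehicle wells; lower values mean less growth of the strain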
Stated conditions: S. cerevisiae deletion strains, growth OD, locus YDL134C, strain PPH21, stronger effect = lower value
Hit rate of the full screen: of about 5,500 compounds, about 2,000 (36%) were called active. Not shown: some 18% with an inconclusive outcome. The list shows a part of the results.
Reply with the value as a number alone.

Molecule	normalized growth
CCCCOc1ccc(C(=O)CCC(=O)O)cc1	1.04
CCCCOc1ccc(C(=O)CCN2CCCCC2)cc1	0.137
COc1ccc2c(c1)C1(C)CCC(=O)CC1CC2 (centres undefined)	0.947

State its normalized growth: CC(C)N(C(=O)CCl)c1ccccc1
1.02

Fill in reported normalized growth for this entry: CCC1(c2ccccc2)C(=O)NCNC1=O
0.998

Consider the molecule NC(N)=NOCC[C@H](N)C(=O)O and give its recorded normalized growth.
0.999

----------
Measurement description: chemical genetic growth profiling, strain panel (AID 1159580);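 note: tested at 20 µM; growth read once vehicle control cultures reached saturation at 30 °C; 1 = growth at the plate median or of vehicle wells; lower values mean less growth of the strain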
Stated conditions: S. cerevisiae deletion strains, growth OD, locus YLR262C, strain YPT6 (second series), stronger effect = lower value
Screen size: about 5,500 compounds; about 2,000 (36%) were called active. Inconclusive results (about 18%) are left out. Some of the results follow.
Measured endpoint: normalized growth
In your answer, state the number alone without any accompanying words.

Reference set (3 entries):
Molecule	Measured endpoint	Observed measurement
CNC1(C)C2CCC(C2)C1(C)C (stereo not given)	normalized growth	1
COc1c2c(c(CC=C(C)C)c3oc(=O)c(-c4ccc(O)cc4)c(O)c13)OC(C)(C)C=C2	normalized growth	0.584
CO[C@H]1C[C@H](O[C@H]2[C@H](C)[C@@H](OC3O[C@H](C)C[C@H](N(C)C)[C@H]3O)[C@@H](C)C[C@]3(CO3)C(=O)[C@H](C)[C@@H](O)[C@@H](C)[C@@H](C)OC(=O)[C@@H]2C)O[C@@H](C)[C@@H]1O (stereo not given in full)	normalized growth	1.02

Tell me its normalized growth given CC1(C)C2CC[C@]3(C)C(C(=O)C=C4[C@@H]5C[C@@](C)(C(=O)O)CC[C@]5(C)CC[C@]43C)[C@@]2(C)CC[C@@H]1OC(=O)CCC(=O)O (stereo not given in full) as the entry.
0.962

Hello, please tell me recorded normalized growth for this one: COc1ccc(C(=O)c2ccccc2O)c(O)c1
0.46

Check the records and state normalized growth for O=C(O)C1CC([C@@H]2CCCCN2)CN2CCCCC12 (stereo not given in full)
0.978

Give recorded normalized growth. CC(=O)O[C@]1(C(C)=O)CCC2C3C=C(C)C4=CC(=O)CCC4(C)C3CCC21C (stereo not given in full)
0.699

Let me know recorded normalized growth for CCc1ccc(CCOc2ccc(CC3SC(=O)NC3=O)cc2)nc1 (stereo not given) , thanks.
0.99
